Molecular target: nanoKAZ luciferase (Oplophorus gracilirostris, UniProt Q9GV45, A31E/A60N/A81I/F95D/I117V/K70R/L54V/L99Q/M102K/N193R/P142E/Q151K/Q38R/Q45L/V71I/Y165I)
Construct: luciferase catalytic domain (nanoKAZ, 19 kDa) from the Oplophorus-derived luciferase; host or cells: cell-free: 1-Step Human Coupled IVT Kit, pT7CFE1-based vector
Sequence (Q9GV45 other isoform, or with tags, fused parts or gaps with the stated changes): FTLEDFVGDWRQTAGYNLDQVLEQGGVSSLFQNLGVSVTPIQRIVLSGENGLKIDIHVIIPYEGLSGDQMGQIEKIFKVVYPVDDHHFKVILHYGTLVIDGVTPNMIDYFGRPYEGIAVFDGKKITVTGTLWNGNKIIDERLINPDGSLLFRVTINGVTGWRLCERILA
Assay: In vitro bioluminescence screening of imidazo[1,2-a]pyrazin-3(7H)-ones with nanoKAZ expressed in vitro (96-well luminometer, 2 h kinetic)
Format: biochemical
Conditions: second table; furimazine = 1
Quantity Name: V3: area under the curve for 2 hours, normalized using furimazine (Q-1) as a reference
Kindly provide the number alone.

Illustrative cases are given below, each with its answer.
Compound: Cc1cc(Cc2nc3c(Cc4cccc(F)c4F)[nH]c(-c4ccccc4)cn-3c2=O)oc1C
Observed Result: 2.29
--
Compound: O=c1c(Cc2ccccc2)nc2c(Cc3cccc(F)c3F)[nH]c(-c3ccccc3)cn1-2
Observed Result: 1.94
--
Compound: O=c1c(Cc2ccco2)nc2c(Cc3ccccc3)[nH]c(-c3ccccc3)cn1-2 [Q-1, reference compound]
Observed Result: 1

Name the recorded V3: area under the curve for 2 hours, normalized using furimazine (Q-1) as a reference of the item "CCCc1ccc(Cc2nc3c(Cc4ccccc4)[nH]c(-c4ccccc4)cn-3c2=O)o1" in your answer. 1.23

---

Molecular target: nanoKAZ luciferase (Oplophorus gracilirostris, UniProt Q9GV45, A31E/A60N/A81I/F95D/I117V/K70R/L54V/L99Q/M102K/N193R/P142E/Q151K/Q38R/Q45L/V71I/Y165I)
Construct: luciferase catalytic domain (nanoKAZ, 19 kDa) from the Oplophorus-derived luciferase; host or cells: cell-free: 1-Step Human Coupled IVT Kit, pT7CFE1-based vector
Assay: In vitro bioluminescence screening of imidazo[1,2-a]pyrazin-3(7H)-ones with nanoKAZ expressed in vitro (96-well luminometer, 2 h kinetic)
Assay type: biochemical
Conditions: Table 1; furimazine = 1
Quantity Name: V1: maximum intensity, normalized using furimazine (Q-1) as a reference
Kindly provide the number alone.

Molecule: Cc1ccc(Cc2nc3c(Cc4ccccc4)[nH]c(-c4ccccc4)cn-3c2=O)o1 [Q-3]
Observed Result: 2.7

Name the recorded V1: maximum intensity, normalized using furimazine (Q-1) as a reference of the item Cc1cc(Cc2nc3c(Cc4ccccc4)[nH]c(-c4ccccc4F)cn-3c2=O)oc1C [Q-61] in your answer. 2.13

Name the recorded V1: maximum intensity, normalized using furimazine (Q-1) as a reference of the item Cc1ccc(Cc2nc3c(Cc4ccccc4F)[nH]c(-c4ccccc4)cn-3c2=O)o1 [Q-85] in your answer. 2.3

Name the recorded V1: maximum intensity, normalized using furimazine (Q-1) as a reference of the item Cc1ccc(Cc2nc3c(Cc4ccccc4Cl)[nH]c(-c4ccccc4)cn-3c2=O)o1 [Q-98] in your answer. 1.18

---

Below is a list of entries, each paired with its recorded V3: area under the curve for ten minutes, normalized using furimazine (Q-1) as a reference value.
Molecular target: nanoKAZ luciferase (Oplophorus gracilirostris, UniProt Q9GV45, A31E/A60N/A81I/F95D/I117V/K70R/L54V/L99Q/M102K/N193R/P142E/Q151K/Q38R/Q45L/V71I/Y165I)
Construct: luciferase catalytic domain (nanoKAZ, 19 kDa) from the Oplophorus-derived luciferase; host or cells: cell-free: 1-Step Human Coupled IVT Kit, pT7CFE1-based vector
Experiment: In vitro bioluminescence screening of imidazo[1,2-a]pyrazin-3(7H)-ones with nanoKAZ expressed in vitro (96-well luminometer, 2 h kinetic)
Type: biochemical
Details: Table 1; furimazine = 1
Kindly provide the number alone.

Illustrative cases are given below, each with its answer.
Compound: O=c1c(Cc2ccco2)nc2c(Cc3ccccc3)[nH]c(-c3c(F)cccc3F)cn1-2
Observed Result: 1.02
--
Compound: Cc1cc(Cc2nc3c(Cc4ccccc4)[nH]c(-c4ccccc4F)cn-3c2=O)oc1C
Observed Result: 1.97
--
Compound: O=c1c(Cc2ccco2)nc2c(Cc3ccccc3)[nH]c(-c3ccccc3F)cn1-2
Observed Result: 1.33
--
Compound: CCc1ccc(Cc2nc3c(Cc4ccccc4)[nH]c(-c4ccccc4)cn-3c2=O)o1
Observed Result: 2.2
--
Compound: Cc1ccc(Cc2nc3c(Cc4ccccc4)[nH]c(-c4ccccc4)cn-3c2=O)o1
Observed Result: 2.39

Please turn your attention to the following entry.
Name the recorded V3: area under the curve for ten minutes, normalized using furimazine (Q-1) as a reference of the item "O=c1c(Cc2ccccc2)nc2c(Cc3cccc(F)c3)[nH]c(-c3ccccc3)cn1-2" in your answer. 1.19
